# Test system: KM12 colon
# ASSAY_DETAILS: NCI-60 one-dose screen, 48 h
# ASSAY_CONDITIONS: 10 µM unless noted
This is part of a sample that, as a whole, favours compounds with a hit. Of some 83,000 tested, about 20% had one in any assay. The source made the active and inactive calls. How the source made its calls: active means growth percent below 10; inactive means the rest.
Reply using exactly one outcome from y (active), n (inactive)

>  <COMPOUND>
CCN1C(=O)N(CC)C2Nn3c(s/c(=C4\C(=O)N(C(C)C)c5ccccc54)c3=O)=NC21 (stereo not given)

>  <CAT>
n

$$$$

How did this test come out for `Clc1ccc(COc2ccc(Nc3ncnc4onc(-c5ccccc5)c34)cc2)cc1` ?
n

Now the compound O=C(NCc1ccco1)C1CN(c2ccc(Cl)cc2)N(c2ccc(Cl)cc2)C1=O (stereo not given)
n

And then `COc1ccc(/C=C/C(=O)c2ccc3cc(OC)c(OC)cc3c2)cc1OC` , what is it?
n

Then `COc1ccc(-c2nc(-c3ccccn3)c(-c3ccccn3)n2CC(C)C)cc1OC1CCCC1` ?
y

----------
# Tested on: OVCAR-4 ovarian
# ASSAY_DETAILS: NCI-60 one-dose screen, 48 h (100 = growth as untreated, 0 = no growth, -100 = all killed)
# ASSAY_CONDITIONS: 10 µM unless noted
This is part of a sample that, as a whole, favours compounds with a hit. Of some 83,000 tested, about 20% had one in any assay.
Reported values of growth for individual entries
A number alone suffices; assume %.

Examples from the recorded data:
>  <STRUCTURE_SMILES>
COc1nccc2cc3c(=O)n4c(cc5ccccc54)c(=O)n3c12

>  <READOUT_NUMBER>
97.3

$$$$
>  <STRUCTURE_SMILES>
Cc1ccc2nc(NC(=O)CSC(=S)N3CCN(c4ccccc4)CC3)sc2c1

>  <READOUT_NUMBER>
92.7

$$$$
>  <STRUCTURE_SMILES>
COc1cc(/C=C2\CN(S(=O)(=O)c3ccccc3)C/C(=C\c3cc(CN4CCCC4)c(O)c(OC)c3)C2=O)cc(CN2CCCC2)c1O

>  <READOUT_NUMBER>
34.8

$$$$

# get_value(readout='growth', item= `CC(=O)c1ccc2oc(=O)n(Cc3ccc(C#N)cc3)c(=O)c2c1` )
96.3

Cool, now `CCOC(=O)C1=C(C)c2ccc(OC)c(OC)c2C1`
84.7

----------
# Test system: LOX IMVI melanoma
# ASSAY_DETAILS: NCI-60 one-dose screen, 48 h (100 = growth as untreated, 0 = no growth, -100 = all killed)
# ASSAY_CONDITIONS: 10 µM unless noted
# Procedure: Growth inhibition of the LOX IMVI human tumor cell line is measured as a screen for anti-cancer activity. Cells are grown in 96 well plates and exposed to the test compound for 48 hours. Compounds are tested at a single concentration, which is 10^-5 M for most compounds. The reported endpoint is percent growth (GI% or GIPRCNT), where numbers from 0 - 100% represent growth inhibition, and numbers from -100% - 0 represent cell death. For example, a value of 40 represents 60% growth inhibition. […]
This is part of a sample that, as a whole, favours compounds with a hit. Of some 83,000 tested, about 20% had one in any assay.
REPORTED_METRIC: growth (%)
Give the number; % is assumed, so skip it.

>  <MOLECULE>
O=C(NCCCN1CCC(N2CCCCC2)CC1)C1=Cc2cc(Br)ccc2OC1

>  <SUBJECT_OF_TEST>
LOX IMVI melanoma

>  <growth [%]>
31.3

$$$$
>  <MOLECULE>
O=C1c2cc(Cl)ccc2Oc2cc([N+](=O)[O-])ccc2N1c1ccc(F)cc1F

>  <SUBJECT_OF_TEST>
LOX IMVI melanoma

>  <growth [%]>
95.4

$$$$
>  <MOLECULE>
Cc1cccc2c(=O)c3c(sc12)c(N1CCNCC1)nc1ccccc13

>  <SUBJECT_OF_TEST>
LOX IMVI melanoma

>  <growth [%]>
10.3

$$$$
>  <MOLECULE>
CCCCCCn1c(=N)n(CC(O)COc2cccc(C)c2)c2ccccc21 (configuration not stated)

>  <SUBJECT_OF_TEST>
LOX IMVI melanoma

>  <growth [%]>
-86.3

$$$$
>  <MOLECULE>
Nc1nc(Nc2cccc(F)c2)nc2ccccc12

>  <SUBJECT_OF_TEST>
LOX IMVI melanoma

>  <growth [%]>
17.2

$$$$

API: value(readout=growth, system=LOX IMVI melanoma) for record `C[n+]1c2ccccc2nc2ccc(NCCO)cc21`
90.6

Next molecule up: `Cc1ccc2cccc(Oc3ccc(Nc4ncnc5onc(-c6ccccc6)c45)cc3)c2n1`
56.5

And the next one, `CCOC(=O)C1=C(C)c2ccc(OC)c(OC)c2C1` ?
96.1

Moving on to `COc1cc(CNC(=O)Cc2ccccc2)ccc1OCc1cn(-c2ccc(F)cc2)nn1`
99.6

Also, `O=c1cc(NC2CCN(CCCc3ccccc3)CC2)c2cc(Cl)ccc2o1` please.
-1.07

Same again, this time with `Nc1ccccc1-c1ccc(-c2ccc(Cl)cc2)c2c1[nH]c1ccccc12`
72.5

Try this molecule too: `CCCCCCCCCCOC(=O)c1ccccc1C(=O)OCCCC`
102

Continue with `Cc1sc2ncn(CC(=O)Nc3ccc(S(N)(=O)=O)cc3)c(=O)c2c1C`
99

Consider next the molecule `CCCC(=O)CC(C)=O.CCCC(=O)CC(C)=O.[Cu]` in the same way.
86.5

Repeat for the following molecule: O=C(Nc1ncc(Cc2cccc(C(F)(F)F)c2)s1)C1COc2ccccc2O1 (configuration not stated)
94.8

Repeat for the following molecule: `O=c1oc2ccc(Br)cc2c(=O)n1-c1ccc(Cl)cc1F`
8.91

Continue with `COc1cc(/C=C/C(=O)c2c(C)nc3ccccc3c2/C=C/c2ccccc2)cc(OC)c1OC`
-86.7

Same lookup for O=CCCCC(O)C=O (configuration not stated) , please.
97.9

And for `COc1cc2nc(-c3cnc(N(C)C)nc3)nc(NC3CCN(Cc4ccccc4)CC3)c2cc1OC` ?
-91.9

Would you mind doing C=CCN1C(=O)/C(=c2\sc3n(c2=O)NC2C(N=3)N(CC)C(=O)N2CC)c2ccccc21 (configuration not stated) as well?
47.7

Now the same for `Cc1[nH]c2ccccc2c(=O)c1CC=C(Cl)Cl`
3.09

Here is the next molecule: `COc1cc(C#N)cc2[nH]c(=O)oc12`
111

Values compiled from PubChem BioAssay (NCI).
